# Assay info: Food effect on single dose Compound of Formula I 100 mg single agent tablet (8 subjects)
# Assay type: in vivo, human
# Test settings: human, plasma, oral, 100 mg, mean; Compound of Formula I 100 mg single agent tablet, Fed (high-fat breakfast), n = 8
Assay endpoint: AUC(0-t) (µg·h/mL)
Reply with just the number (in µg·h/mL).

In plain terms, O=C(NCc1c(F)cc(F)cc1F)c1cn2c(c(O)c1=O)C(=O)N1[C@H]3CC[C@H](C3)O[C@@H]1C2 [Compound of Formula I] has a documented AUC(0-t) of 209

###

# Assay info: Relative bioavailability and food-effect crossover study, cohort 1 (bilayer tablet F2 vs F1 co-administered with F3)
# Test settings: human, in vivo, AUCinf, plasma, mean; F2 Compound of Formula I/F/TAF (75/200/25 mg), high-fat meal, Test, N = 28
Assay endpoint: AUC(0-inf) (ng·h/mL)
Reply with just the number (in ng·h/mL).

In plain terms, CC(C)OC(=O)[C@H](C)N[P@](=O)(CO[C@H](C)Cn1cnc2c(N)ncnc21)Oc1ccccc1 [Tenofovir alafenamide] has a documented AUC(0-inf) of 320

Values compiled from patent US11744802B2.
